# SYSTEM_UNDER_TEST: CIB1 and αIIb interaction (CIB1-GST : F-αIIb peptide) (Homo sapiens, UniProt Q99828)
# Construct: made in house; host or cells: BL-21 plus RIL cells (E. coli)
# Sequence (Q99828 whole entry): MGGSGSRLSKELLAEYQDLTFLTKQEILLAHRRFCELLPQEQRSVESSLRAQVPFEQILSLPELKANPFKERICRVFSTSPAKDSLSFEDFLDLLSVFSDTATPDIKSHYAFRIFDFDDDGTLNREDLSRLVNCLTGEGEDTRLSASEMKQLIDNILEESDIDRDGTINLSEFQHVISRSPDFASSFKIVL
# ASSAY_INFO: FP assay, 1536-well qHTS format (primary and confirmatory screen)
# Type: binding
# SETUP_CONDITIONS: qHTS primary screen of LOPAC/NPACT libraries; read-out: IC50
pIC50: −log10 of the molar value.
PARAMETER_MEASURED: pIC50

| MOLECULE | TEST_VALUE |
| --- | --- |
| O=c1[nH]c2cc(C(F)(F)F)ccc2n1-c1cc(C(F)(F)F)ccc1O | 4.35 |
| Oc1ccc2c3c1O[C@H]1c4[nH]c5c(N=C=S)cccc5c4C[C@@]4(O)[C@@H](C2)N(CC2CC2)CC[C@]314 | 4.00 |
| O=C(O)/C(=C/c1c(C(=O)O)[nH]c2cc(Cl)cc(Cl)c12)c1ccccc1 | 4.25 |
| COc1ccc(Cl)cc1C(=O)NCCc1ccc(S(=O)(=O)NC(=O)NC2CCCCC2)cc1 | 4.50 |
| C=C1CC(=O)C2OC2(C)CC2OC(=O)C(=C)C2C(O)C1OC(=O)/C(C)=C\C (stereo not drawn) | 4.85 |
| O=C(O)c1cc(O)c2cccc(O)c2c1O[C@@H]1O[C@H](CO)[C@@H](O)[C@H](O)[C@H]1O | 4.40 |
| CCC(C)(OC(C)=O)C(=O)O[C@H]1[C@H](OC(C)=O)C[C@@H]2[C@@](C)([C@@H]3C[C@H]4C=CO[C@H]4O3)[C@H](C)C[C@H](OC(C)=O)[C@@]2(COC(C)=O)[C@@]12CO2 (stereo partly drawn) | 5.00 |
| N#CC(=C(\N)Sc1ccccc1N)/C(C#N)=C(/N)Sc1ccccc1N | 4.70 |
| C=CC(=O)Nc1cccc(Oc2nc(Nc3ccc(N4CCN(C)CC4)cc3)ncc2Cl)c1 | 4.35 |

src = paper PMC11249646
